- Tested on: E. faecium E7314
- measurementProtocol: microbe, parasite or virus in culture
- Format: cell-based, Enterococcus faecium
- conditions: E. faecium E7314, VanB (Table 10)
outcomeMeasure: MIC

Fill in MIC for each of the 2 compounds listed.
1. CCCCCCN(CCCCCC)C(N)=Nc1ccc(CN[C@@]2(C)C[C@H](O[C@H]3[C@H](Oc4c5cc6cc4Oc4ccc(cc4Cl)[C@@H](O)[C@@H](NC(=O)[C@@H](CC(C)C)NC)C(=O)N[C@@H](CC(N)=O)C(=O)N[C@H]6C(=O)N[C@H]4C(=O)N[C@H](C(=O)N[C@H](C(=O)O)c6cc(O)cc(O)c6-c6cc4ccc6O)[C@H](O)c4ccc(c(Cl)c4)O5)O[C@H](CO)[C@@H](O)[C@@H]3O)O[C@@H](C)[C@H]2O)cc1 [Compound 12]
2. CCCCCCCCCNC(N)=Nc1ccc(CN[C@@]2(C)C[C@H](O[C@H]3[C@H](Oc4c5cc6cc4Oc4ccc(cc4Cl)[C@@H](O)[C@@H](NC(=O)[C@@H](CC(C)C)NC)C(=O)N[C@@H](CC(N)=O)C(=O)N[C@H]6C(=O)N[C@H]4C(=O)N[C@H](C(=O)N[C@H](C(=O)O)c6cc(O)cc(O)c6-c6cc4ccc6O)[C@H](O)c4ccc(c(Cl)c4)O5)O[C@H](CO)[C@@H](O)[C@@H]3O)O[C@@H](C)[C@H]2O)cc1 [Compound 7]

Reply |
1: ≤8 ng/mL; 2: ≤8 ng/mL

====

- Tested on: E. faecium E0300
- measurementProtocol: MIC assay
- Assay type: cell-based, Enterococcus faecium
- conditions: E. faecium E0300, VanA
Assignment: determine reported MIC for the given molecules.
Give bare numbers, in µg/mL.

smilesString	val
CCCCCCN(CCCCCC)C(N)=Nc1ccc(CN[C@@]2(C)C[C@H](O[C@H]3[C@H](Oc4c5cc6cc4Oc4ccc(cc4Cl)[C@@H](O)[C@@H](NC(=O)[C@@H](CC(C)C)NC)C(=O)N[C@@H](CC(N)=O)C(=O)N[C@H]6C(=O)N[C@H]4C(=O)N[C@H](C(=O)N[C@H](C(=O)O)c6cc(O)cc(O)c6-c6cc4ccc6O)[C@H](O)c4ccc(c(Cl)c4)O5)O[C@H](CO)[C@@H](O)[C@@H]3O)O[C@@H](C)[C@H]2O)cc1	1
CCCCCCCCCNC(N)=Nc1ccc(CN[C@@]2(C)C[C@H](O[C@H]3[C@H](Oc4c5cc6cc4Oc4ccc(cc4Cl)[C@@H](O)[C@@H](NC(=O)[C@@H](CC(C)C)NC)C(=O)N[C@@H](CC(N)=O)C(=O)N[C@H]6C(=O)N[C@H]4C(=O)N[C@H](C(=O)N[C@H](C(=O)O)c6cc(O)cc(O)c6-c6cc4ccc6O)[C@H](O)c4ccc(c(Cl)c4)O5)O[C@H](CO)[C@@H](O)[C@@H]3O)O[C@@H](C)[C@H]2O)cc1	0.5

Ask | # returns recorded MIC (system: E. faecium E0300) for CN[C@H](CC(C)C)C(=O)N[C@H]1C(=O)N[C@@H](CC(N)=O)C(=O)N[C@H]2C(=O)N[C@H]3C(=O)N[C@H](C(=O)N[C@H](C(=O)O)c4cc(O)cc(O)c4-c4cc3ccc4O)[C@H](O)c3ccc(c(Cl)c3)Oc3cc2cc(c3O[C@@H]2O[C@H](CO)[C@@H](O)[C@H](O)[C@H]2O[C@H]2C[C@](C)(NCc3ccc(N=C(N)NC/C=C(\C)CCC=C(C)C)cc3)[C@H](O)[C@H](C)O2)Oc2ccc(cc2Cl)[C@H]1O
Reply | 4

====

Consider the following molecules; for each one, report its MIC.
- System: S. aureus HIP12864, NR-46074
- measurementProtocol: MIC assay
- Format: cell-based, Staphylococcus aureus
- conditions: S. aureus HIP12864, NR-46074 VISA
Give bare numbers, in µg/mL.

smilesString	MIC / µg/mL
CCCCCCCCCCNC(N)=Nc1ccc(CN[C@@]2(C)C[C@H](O[C@H]3[C@H](Oc4c5cc6cc4Oc4ccc(cc4Cl)[C@@H](O)[C@@H](NC(=O)[C@@H](CC(C)C)NC)C(=O)N[C@@H](CC(N)=O)C(=O)N[C@H]6C(=O)N[C@H]4C(=O)N[C@H](C(=O)N[C@H](C(=O)O)c6cc(O)cc(O)c6-c6cc4ccc6O)[C@H](O)c4ccc(c(Cl)c4)O5)O[C@H](CO)[C@@H](O)[C@@H]3O)O[C@@H](C)[C@H]2O)cc1	0.062

In the following, a different molecule is considered.
Ask | Hello, I am looking for reported MIC with S. aureus HIP12864, NR-46074 for CCCCCCCCCCCCCCNC(N)=Nc1ccc(CN[C@@]2(C)C[C@H](O[C@H]3[C@H](Oc4c5cc6cc4Oc4ccc(cc4Cl)[C@@H](O)[C@@H](NC(=O)[C@@H](CC(C)C)NC)C(=O)N[C@@H](CC(N)=O)C(=O)N[C@H]6C(=O)N[C@H]4C(=O)N[C@H](C(=O)N[C@H](C(=O)O)c6cc(O)cc(O)c6-c6cc4ccc6O)[C@H](O)c4ccc(c(Cl)c4)O5)O[C@H](CO)[C@@H](O)[C@@H]3O)O[C@@H](C)[C@H]2O)cc1 . Could you help?
Reply | 2

====

Record form. Attribute: MIC. Fill in for each entry.
- System: S. aureus HIP12864, NR-46074
- measurementProtocol: MIC assay
- Assay type: cell-based, Staphylococcus aureus
- conditions: S. aureus HIP12864, NR-46074 VISA

Below, 2 molecules whose answers are already recorded.
smilesString	MIC
CN[C@H](CC(C)C)C(=O)N[C@H]1C(=O)N[C@@H](CC(N)=O)C(=O)N[C@H]2C(=O)N[C@H]3C(=O)N[C@H](C(=O)N[C@H](C(=O)O)c4cc(O)cc(O)c4-c4cc3ccc4O)[C@H](O)c3ccc(c(Cl)c3)Oc3cc2cc(c3O[C@@H]2O[C@H](CO)[C@@H](O)[C@H](O)[C@H]2O[C@H]2C[C@](C)(NCc3ccc(N=C(N)NC45CC6CC(CC(C6)C4)C5)cc3)[C@H](O)[C@H](C)O2)Oc2ccc(cc2Cl)[C@H]1O	≤0.016 µg/mL
CN[C@H](CC(C)C)C(=O)N[C@H]1C(=O)N[C@@H](CC(N)=O)C(=O)N[C@H]2C(=O)N[C@H]3C(=O)N[C@H](C(=O)N[C@H](C(=O)O)c4cc(O)cc(O)c4-c4cc3ccc4O)[C@H](O)c3ccc(c(Cl)c3)Oc3cc2cc(c3O[C@@H]2O[C@H](CO)[C@@H](O)[C@H](O)[C@H]2O[C@H]2C[C@](C)(NCc3ccc(N=C(N)NC/C=C(\C)CC/C=C(\C)CCC=C(C)C)cc3)[C@H](O)[C@H](C)O2)Oc2ccc(cc2Cl)[C@H]1O	0.125 µg/mL

Consider the additional molecule presented here.
Ask | Recorded MIC for CCCCCCCNC(N)=Nc1ccc(CN[C@@]2(C)C[C@H](O[C@H]3[C@H](Oc4c5cc6cc4Oc4ccc(cc4Cl)[C@@H](O)[C@@H](NC(=O)[C@@H](CC(C)C)NC)C(=O)N[C@@H](CC(N)=O)C(=O)N[C@H]6C(=O)N[C@H]4C(=O)N[C@H](C(=O)N[C@H](C(=O)O)c6cc(O)cc(O)c6-c6cc4ccc6O)[C@H](O)c4ccc(c(Cl)c4)O5)O[C@H](CO)[C@@H](O)[C@@H]3O)O[C@@H](C)[C@H]2O)cc1 , please?
Reply | 0.063 µg/mL

====

Assign MIC to each entry below.
- System: E. faecium E0745
- measurementProtocol: MIC assay
- Format: cell-based, Enterococcus faecium
- conditions: E. faecium E0745, VanA
Answers are plain numbers, in µg/mL.

Would you please look over these solved cases?
smilesString	unitTag	MIC
CCCCCCCNC(N)=Nc1ccc(CN[C@@]2(C)C[C@H](O[C@H]3[C@H](Oc4c5cc6cc4Oc4ccc(cc4Cl)[C@@H](O)[C@@H](NC(=O)[C@@H](CC(C)C)NC)C(=O)N[C@@H](CC(N)=O)C(=O)N[C@H]6C(=O)N[C@H]4C(=O)N[C@H](C(=O)N[C@H](C(=O)O)c6cc(O)cc(O)c6-c6cc4ccc6O)[C@H](O)c4ccc(c(Cl)c4)O5)O[C@H](CO)[C@@H](O)[C@@H]3O)O[C@@H](C)[C@H]2O)cc1	µg/mL	1
CCCCCCCCCNC(N)=Nc1ccc(CN[C@@]2(C)C[C@H](O[C@H]3[C@H](Oc4c5cc6cc4Oc4ccc(cc4Cl)[C@@H](O)[C@@H](NC(=O)[C@@H](CC(C)C)NC)C(=O)N[C@@H](CC(N)=O)C(=O)N[C@H]6C(=O)N[C@H]4C(=O)N[C@H](C(=O)N[C@H](C(=O)O)c6cc(O)cc(O)c6-c6cc4ccc6O)[C@H](O)c4ccc(c(Cl)c4)O5)O[C@H](CO)[C@@H](O)[C@@H]3O)O[C@@H](C)[C@H]2O)cc1	µg/mL	0.125
CCCCCCCCNC(N)=Nc1ccc(CN[C@@]2(C)C[C@H](O[C@H]3[C@H](Oc4c5cc6cc4Oc4ccc(cc4Cl)[C@@H](O)[C@@H](NC(=O)[C@@H](CC(C)C)NC)C(=O)N[C@@H](CC(N)=O)C(=O)N[C@H]6C(=O)N[C@H]4C(=O)N[C@H](C(=O)N[C@H](C(=O)O)c6cc(O)cc(O)c6-c6cc4ccc6O)[C@H](O)c4ccc(c(Cl)c4)O5)O[C@H](CO)[C@@H](O)[C@@H]3O)O[C@@H](C)[C@H]2O)cc1	µg/mL	0.25
CCCCCCN(CCCCCC)C(N)=Nc1ccc(CN[C@@]2(C)C[C@H](O[C@H]3[C@H](Oc4c5cc6cc4Oc4ccc(cc4Cl)[C@@H](O)[C@@H](NC(=O)[C@@H](CC(C)C)NC)C(=O)N[C@@H](CC(N)=O)C(=O)N[C@H]6C(=O)N[C@H]4C(=O)N[C@H](C(=O)N[C@H](C(=O)O)c6cc(O)cc(O)c6-c6cc4ccc6O)[C@H](O)c4ccc(c(Cl)c4)O5)O[C@H](CO)[C@@H](O)[C@@H]3O)O[C@@H](C)[C@H]2O)cc1	µg/mL	0.25

For the next question, use this compound.
Ask | Param readout = MIC; param system = E. faecium E0745; param query = CN[C@H](CC(C)C)C(=O)N[C@H]1C(=O)N[C@@H](CC(N)=O)C(=O)N[C@H]2C(=O)N[C@H]3C(=O)N[C@H](C(=O)N[C@H](C(=O)O)c4cc(O)cc(O)c4-c4cc3ccc4O)[C@H](O)c3ccc(c(Cl)c3)Oc3cc2cc(c3O[C@@H]2O[C@H](CO)[C@@H](O)[C@H](O)[C@H]2O[C@H]2C[C@](C)(NCc3ccc(N=C(N)NC/C=C(\C)CCC=C(C)C)cc3)[C@H](O)[C@H](C)O2)Oc2ccc(cc2Cl)[C@H]1O ; response: value
Reply | 1

Every entry's value here was drawn from patent US20230174584A1.
